System: UACC-62
method notes: NCI tumour cell line growth inhibition, 48 h
Activity calls are given as the source filed them. Rule as the data show it: active = GI50 up to about 1.1 µM and inactive = higher.
value type: GI50

Worked examples follow.
Need GI50, item O=C1C2C3CC(C4C5C=CC(C5)C34)C2C2C3CC(C12)C1C2C=CC(C2)C31 (stereo unspecified)
> 100 µM (inactive)

Need GI50, item CCOP(C)(=O)C(Cc1c[nH]c2ccccc12)C(=O)O (stereo unspecified)
> 100 µM (inactive)

Need GI50, item COc1ccc(C2=C(N)c3c(Cl)cccc3C2=O)cc1
> 100 µM (inactive)

Go through the items and report each one's GI50.
1. OC1(C(O)(c2ccc(-c3ccccc3)cc2)c2ccc(-c3ccccc3)cc2)CCCCC1
2. CCCCCCc1cc2cc(-c3csc(-c4ccc(OC)cc4)n3)c(=O)oc2cc1O
3. N#C[C-](C#N)[n+]1ccc(Cl)cc1

1: > 100 µM (inactive); 2: 6.55 µM (inactive); 3: 15.9 µM (inactive)

====

System: SNB-78
method notes: NCI tumour cell line growth inhibition, 48 h
Activity calls are given as the source filed them. Rule as the data show it: active = GI50 up to about 1.1 µM and inactive = higher.
Your answer must be one of the following: t (active), f (inactive)

Query: recorded result category for O=C(Cc1nc2ccccc2s1)C(=O)Nc1cccc(C(F)(F)F)c1 in this test
f

Query: recorded result category for N#C/C(=C\c1cccc(O)c1)C(N)=O in this test
f

Query: recorded result category for O=C1CCCC[C@H]1[C@H]1CCC[C@@H]([C@H]2CCCCC2=O)C1=O in this test
f

Query: recorded result category for COc1cc2c(c(OC)c1OC)-c1ccc(SC)c(=O)cc1C(CC(=O)Oc1ccccc1F)C2 (stereo not given) in this test
t

Query: recorded result category for Cc1c2ccncc2c(C)c2c1[nH]c1ccccc12 in this test
f

====

Hi there, I'd appreciate the recorded GI50 for every entry that follows.
Tested on: SF-539
method notes: NCI tumour cell line growth inhibition, 48 h
Active and inactive are the calls of the source. No stated cut-off is given here; in the data, active = GI50 up to about 1.1 µM and inactive = higher.

Worked examples follow.
Need GI50, item COC(=O)CCC(NC(=S)N/N=C(\C)c1nccs1)C(=O)OC (centres undefined)
> 100 µM (inactive)

Need GI50, item CC(NC(=O)C(N)CC(=O)O)NC(=O)N1CCOCC1 (centres undefined)
> 100 µM (inactive)

Need GI50, item O=C(Cc1ccccc1)Nc1nc2ccc(Cl)cc2c2nc(-c3ccco3)nn12
7.69 µM (inactive)

Need GI50, item CC(CN1CCN(CC(C)Nc2ccnc3cc(Cl)ccc23)CC1)Nc1ccnc2cc(Cl)ccc12 (centres undefined)
16 µM (inactive)

Need GI50, item CC1=C(C2=C(C)C(=O)c3c(c(C=O)c(O)c(O)c3C(C)C)C2=O)C(=O)c2c(C=O)c(O)c(O)c(C(C)C)c2C1=O [GOSSYPOLONE]
2.69 µM (inactive)

Go through the items and report each one's GI50.
1. O=C1C(Cl)=C(N2CCN(CCOCCO)CC2)C(=O)c2c(O)ccc(O)c21
2. CCCCCCCCCCCCCCCCOCC(Cl)COP(=O)(O)OP(=O)(O)OCC1OC(n2cnc3c(N)ncnc32)C(O)C1O (centres undefined)
3. CCCCCCCCCCCCCCCCCCNc1ccn(C2OC(COP(=O)(O)OCC3OC(n4ccc(N)nc4=O)C(O)C3O)C(O)C2O)c(=O)n1 (centres undefined)
4. COc1cc2nc(-c3cccs3)oc(=O)c2cc1OC

1. 1.3 µM (inactive)
2. 76 µM (inactive)
3. > 100 µM (inactive)
4. 57.3 µM (inactive)

Ref: ChEMBL document CHEMBL1201862
